All values here come from patent US10640495B2.

Target: UniProt P04629
Assay: Human TrkA inhibition assay (Test Example 2)
Type: biochemical
Conditions: Table 152, human TrkA inhibition; read-out: IC50_nM
pIC50: −log10 of the molar value.
observable: pIC50

# molecule, pIC50
data = [
    ("COCCC1C[C@H](NC(=O)Nc2c(C)c(-c3cnn(C)c3)nn2-c2ccccc2)[C@@H](c2ccccc2)O1 (stereo partly drawn) [Compound I-17]", "< 6.00"),
    ("COCCN1C[C@@H](NC(=O)Nc2c(C)c(-c3cnn(C)c3)nn2-c2ccccc2)[C@H](c2ccccc2)O1 (racemic) [Compound I-4]", "> 7.00"),
    ("COCCN1C[C@@H](NC(=O)Nc2c(C)c(-c3cnc4nc(C)nn4c3)nn2-c2ccccc2)[C@H](c2ccc(F)c(F)c2)O1 (racemic) [Compound I-43]", "> 7.00"),
]

The molecule COCCN1C[C@@H](NC(=O)Nc2c(C)c(-c3cnc(CO)nc3)nn2-c2ccccc2)[C@H](c2ccc(F)c(F)c2)O1 (racemic) [Compound I-34] showed pIC50 equal to > 7.00

The molecule CCN1CCC(NC(=O)c2ccc(-c3nn(-c4ccccc4)c(NC(=O)N[C@@H]4CC(CCOC)O[C@H]4c4ccccc4)c3C)cc2)CC1 (stereo partly drawn) [Compound I-19] showed pIC50 equal to > 7.00

The molecule COCCC1C[C@@H](NC(=O)Nc2c(C)c(C3=CCN(C(=O)OC(C)(C)C)CC3)nn2-c2ccccc2)[C@H](c2ccccc2)O1 (stereo partly drawn) [Compound I-20] showed pIC50 equal to > 7.00

###

Target: human TrkA (Homo sapiens (Human), UniProt P04629)
Sequence (P04629 440-796): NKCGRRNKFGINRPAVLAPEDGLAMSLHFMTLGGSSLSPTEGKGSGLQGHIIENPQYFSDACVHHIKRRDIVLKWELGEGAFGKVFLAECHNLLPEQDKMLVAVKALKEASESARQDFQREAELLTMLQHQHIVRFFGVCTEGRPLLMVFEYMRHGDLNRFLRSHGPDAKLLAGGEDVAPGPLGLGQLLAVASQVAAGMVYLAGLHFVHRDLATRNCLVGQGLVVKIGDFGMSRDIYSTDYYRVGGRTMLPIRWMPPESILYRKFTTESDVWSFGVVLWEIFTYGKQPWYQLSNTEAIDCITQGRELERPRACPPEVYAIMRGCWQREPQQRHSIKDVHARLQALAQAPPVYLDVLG
Assay: Human TrkA inhibition assay (Test Example 2)
Assay type: biochemical
Settings: Table 152, human TrkA inhibition; read-out: IC50_nM
Description: Seven point five μL per well of human TrkA (PV3144, Lifetechnologies, final concentration: 1 nmol/L) suspended in the assay buffer (100 mmol/L 4-(2-hydroxyethyl)-1-piperazineethanesulfonic acid (HEPES), 10 mmol/L magnecium chloride, 0.003 vol % Brij-35, 0.004 vol % Tween20 and 1 mmol/L dithiothreitol (DTT)) was applied in a 384 well plate and the plate was pre-incubated for 15 min at room temperature with 0.4 μL of each compound (final concentration: 200 μmol/L-1 pmol/L) dissolved in DMSO. […]
observable: IC50

Consider the reported IC50 for these compounds:
# compound, reading
measured = [
    ("COCCN1C[C@@H](NC(=O)Nc2c(C)c(-c3ccc(C(=O)O)cc3)nn2-c2ccccc2)[C@H](c2ccc(F)c(F)c2)O1 (racemic) [Compound I-35]", "< 0.1 µM"),
    ("COCC[C@H]1C[C@H](NC(=O)Nc2c(C)c(-c3cnn(C)c3)nn2-c2ccccc2)[C@@H](c2ccc(F)c(F)c2)O1 [Compound I-24]", "> 1 µM"),
    ("COCCN1C[C@H](NC(=O)Nc2c(C)c(C3=CCN(C(C)=O)CC3)nn2-c2ccccc2)[C@@H](c2ccc(F)c(F)c2)O1 [Compound I-38]", "> 1 µM"),
    ("COCCC1C[C@@H](NC(=O)Nc2c(C)c(-c3ccc4c(cnn4C)c3)nn2-c2ccccc2)[C@H](c2ccccc2)O1 (stereo partly drawn) [Compound I-11]", "< 0.1 µM"),
]

The compound COCCN1C[C@@H](NC(=O)Nc2c(C)c(C3=CCN(C(=O)OC(C)(C)C)CC3)nn2-c2ccccc2)[C@H](c2ccc(F)c(F)c2)O1 (racemic) [Compound I-29] showed IC50 equal to < 0.1 µM

The compound COCCN1C[C@@H](NC(=O)Nc2c(C)c(-c3cnc(C)nc3)nn2-c2ccccc2)[C@H](c2ccc(F)c(F)c2)O1 (racemic) [Compound I-26] showed IC50 equal to < 0.1 µM

###

Target: human TrkA (Homo sapiens (Human))
Assay: Human TrkA inhibition assay (Test Example 2)
Format: biochemical
Conditions: Table 157, human TrkA inhibition; read-out: IC50
Overview of reported IC50 across a group of molecules:

Consider the reported IC50 for these molecules:
# smiles, IC50
records = [
    ("COCCN1C[C@@H](NC(=O)Nc2c(C)c(-c3cnc(N4CCN(C)[C@H](C)C4)nc3)nn2-c2ccccc2)[C@H](c2ccnc(F)c2)O1", "< 0.1 µM"),
    ("COCCN1C[C@@H](NC(=O)Nc2c(C)c(-c3cnc(N4CCN(C)CC4)nc3)nn2-c2ccccc2)[C@H](c2ccc(F)c(F)c2)O1", "< 0.1 µM"),
]

# ---- query molecule ----
The molecule `COCCN1C[C@@H](NC(=O)Nc2c(C)c(OC3CCNCC3)nn2-c2ccccc2)[C@H](c2ccc(F)c(F)c2)O1` showed IC50 equal to < 0.1 µM

###

Target: human TrkA (Homo sapiens (Human), UniProt P04629)
Assay: Human TrkA inhibition assay (Test Example 2)
Type: biochemical
Conditions: human TrkA 1 nmol/L, ATP 500 μmol/L, 120 min at 37° C.; read-out: IC50 values (TrkA phosphorylation inhibition)
pIC50: −log10 of the molar value.
observable: pIC50

Consider the reported pIC50 for these molecules:
# molecule, pIC50
rows = [
    ("CNC(=O)c1ncc(-c2nn(-c3ccccc3)c(NC(=O)N[C@@H]3CN(CCOC)O[C@H]3c3cnc(F)c(F)c3)c2C)cc1F (racemic)", 8.44),
    ("COCC[C@@H]1C[C@@H](NC(=O)Nc2c(C)c(-c3cnc(OC)nc3)nn2-c2ccccc2)[C@H](c2ccnc(F)c2)O1", 8.33),
    ("CCN1CCC(NC(=O)c2ccc(-c3nn(-c4ccccc4)c(NC(=O)N[C@@H]4CN(CCOC)O[C@H]4c4ccc(F)c(F)c4)c3C)cc2)CC1 (racemic)", 8.85),
    ("CNC(=O)c1cc(-c2nn(-c3ccccc3)c(NC(=O)N[C@@H]3C[C@@H](CCOC)O[C@H]3c3ccnc(F)c3)c2C)cnc1OC", 8.92),
    ("CNC(=O)c1ncc(-c2nn(-c3ccccc3)c(NC(=O)N[C@@H]3CN(CCOC)O[C@H]3c3cnc(F)c(F)c3)c2C)cc1C", 8.89),
]

[1] COCCN1C[C@@H](NC(=O)Nc2c(C)c(-c3cc(C(=O)NC4CCOCC4)c(=O)n(C)c3)nn2-c2ccccc2)[C@H](c2ccnc(F)c2)O1 (racemic)
[2] COCCN1C[C@@H](NC(=O)Nc2c(C)c(OCCCN(C)C)nn2-c2ccccc2)[C@H](c2ccc(F)c(F)c2)O1
Q: Endpoint returns the identifier whose pIC50 is numerically larger, either 1 or 2 . Label of pick, please.
Result: 1
(1: 9.00, 2: 8.77)

###

Biological target: human TrkA (Homo sapiens (Human))
Assay: Human TrkA inhibition assay (Test Example 2)
Type: biochemical
Conditions: human TrkA 1 nmol/L, ATP 500 μmol/L, 120 min at 37° C.; read-out: IC50 values (TrkA phosphorylation inhibition)
observable: IC50 (nM)

# compound, IC50 (nM)
rows = [
    ("CCN1C[C@@H](NC(=O)Nc2c(C)c(C3=CCN(C(=O)CO)CC3)nn2-c2ccccc2)[C@H](c2ccc(F)c(F)c2)O1 (racemic)", 5),
    ("COCCN1C[C@@H](NC(=O)Nc2c(C)c(-c3cnc4c(c3)oc(=O)n4C)nn2-c2ccccc2)[C@H](c2ccnc(F)c2)O1 (racemic)", 2.7),
    ("COCCN1C[C@@H](NC(=O)Nc2c(C)c(-c3ccnc(C(=O)NOC)c3)nn2-c2ccccc2)[C@H](c2ccnc(F)c2)O1 (racemic)", 4.2),
    ("COCCN1C[C@@H](NC(=O)Nc2c(C)c(-c3cnc(OC)c(C(=O)NC4CCOCC4)c3)nn2-c2ccc(F)cc2)[C@H](c2ccnc(F)c2)O1 (racemic)", 3.8),
    ("COCCN1C[C@@H](NC(=O)Nc2c(C)c(-c3ccc(N=S(C)(C)=O)nc3)nn2-c2ccccc2)[C@H](c2ccc(F)c(F)c2)O1 (racemic)", 1.6),
]

[1] COCCN1C[C@@H](NC(=O)Nc2c(C)c(-c3cnc(N4CC(OC)C4)nc3)nn2-c2ccccc2)[C@H](c2ccnc(F)c2)O1
[2] COCCN1C[C@@H](NC(=O)Nc2c(C)c(-c3cnc(C)nc3)nn2-c2ccccc2)[C@H](c2cc(F)nc(F)c2)O1 (racemic)
Q: Field: lower recorded IC50 (choose 1 or 2 ) Label of pick, please.
Result: 1

[A] COCCN1C[C@@H](NC(=O)Nc2c(C)c(-c3cnc4c(cnn4C)c3)nn2-c2ccccc2)[C@H](c2ccnc(F)c2)O1 [Compound I-65]
[B] COCCN1C[C@@H](NC(=O)Nc2c(C)c(-c3cnc(N=S(C)(C)=O)nc3)nn2-c2ccccc2)[C@H](c2ccc(F)c(F)c2)O1
[C] CCN1C[C@@H](NC(=O)Nc2c(C)c(-c3cnc(OC)c(C(=O)NC)c3)nn2-c2ccccc2)[C@H](c2ccc(F)c(F)c2)O1 (racemic)
[D] CNC(=O)c1ncc(-c2nn(-c3ccccc3)c(NC(=O)N[C@@H]3CN(CCOC)O[C@H]3c3ccnc(F)c3)c2C)cc1C (racemic) [Compound I-166]
Q: Order each entry by recorded IC50, climbing from the minimum. Put the labels in the requested order and list them out.
Result: B, A, C, D
(B: 0.55 nM, A: 0.92 nM, C: 2.2 nM, D: 4.8 nM)
